- target_entity: tooth pellicle (thin film derived from salivary glycoproteins, formed in a human mouth) (human)
- measurement_description: phage ELISA on pellicle-coated bovine enamel, anti-M13-HRP, normalized to internal control
metric: O.D.450 (normalized)

P. GPQHVLMQDTHQGYAFDN [DenP16]
Q. TYQGVPSWPAVIDDAIRR [DenP19]
R. DHNNRQHAVEVRENKTHTAR [DenP21]
Qu. Order the items by recorded O.D.450 (normalized); the first position goes to the largest value. Give me the labels in the order the question wants.
Ans. P, Q, R
(P: 2.19, Q: 1.05, R: 0.728)

A. TTYHYKNIYQESYQQRNPAV [DenP3]
B. IPWWNIRAPLNAGGG [Control (SEQ ID NO: 95)]
Qu. Which numeric O.D.450 (normalized) is bigger, that of A or that of B ? Mark your answer with the label of the selected entry.
Ans. A

a. TNDLHANPFTGTYIAPDPTS [DenP30]
b. AVVPADLNDHANHLS [DenP10]
Qu. Lab note: record which item had the higher O.D.450 (normalized), a or b . To answer, give the label that identifies your chosen option.
Ans. b

Hey, just so you know, these numbers are from patent US20100247589A1.
